// data source = a melting point compilation (Tetko et al.)

Consider the following molecules and their measured melting point readings.

Known results for molecules:
Molecule	Endpoint Value
O=C1CCc2cc([N+](=O)[O-])ccc2N1	201 to 203 °C
OCc1cc(Br)cc(CO)c1O	164 to 166 °C
Nc1ccc(-c2nc3ccccc3s2)cc1N	165 to 169 °C
C=CCc1cc([N+](=O)[O-])ccc1O	68 to 70 °C
COc1ccc(CCC(=O)CC#N)cc1	58 to 60 °C

Can you share its melting point? I mean this molecule: "O=C(Nc1cnccn1)c1ccc(Br)cc1"
195 to 197 °C

Try the molecule "NC(=O)N1CC=C(c2ccc(O)cc2)CC1"
244 to 246 °C

Moving on to the next molecule: "Cc1ccc(Cn2nc(C)c(C=O)c2C)cc1"
65 to 67 °C
